test: Drug-drug interaction study with rifampin (CYP3A4 inducer): sotorasib plasma PK in healthy subjects; type: in vivo, human; conditions: human, plasma, 960 mg, 960 mg sotorasib + 600 mg rifampin on day 3 (Test), single-dose rifampin; read-out: AUCinf (GLSM)
endpoint_label: AUC(0-inf) (ng·h/mL)

> print(dat)
                                   compound      uom  value.reported
1  C=CC(=O)N1CCN(c2nc(=O)n(-c3c(C)ccnc3C(C)C)c3nc(-c4c(O)cccc4F)c(F)cc23)[C@@H](C)C1 (atropisomer, axis not shown; (M))  ng·h/mL           19600
